meta.source: patent US11999727B2

// reported pIC50 per item
Tgt: PRMT5 (Homo sapiens)
Construct: purchased Viva (custom protein)
Sequence (O14744 whole entry): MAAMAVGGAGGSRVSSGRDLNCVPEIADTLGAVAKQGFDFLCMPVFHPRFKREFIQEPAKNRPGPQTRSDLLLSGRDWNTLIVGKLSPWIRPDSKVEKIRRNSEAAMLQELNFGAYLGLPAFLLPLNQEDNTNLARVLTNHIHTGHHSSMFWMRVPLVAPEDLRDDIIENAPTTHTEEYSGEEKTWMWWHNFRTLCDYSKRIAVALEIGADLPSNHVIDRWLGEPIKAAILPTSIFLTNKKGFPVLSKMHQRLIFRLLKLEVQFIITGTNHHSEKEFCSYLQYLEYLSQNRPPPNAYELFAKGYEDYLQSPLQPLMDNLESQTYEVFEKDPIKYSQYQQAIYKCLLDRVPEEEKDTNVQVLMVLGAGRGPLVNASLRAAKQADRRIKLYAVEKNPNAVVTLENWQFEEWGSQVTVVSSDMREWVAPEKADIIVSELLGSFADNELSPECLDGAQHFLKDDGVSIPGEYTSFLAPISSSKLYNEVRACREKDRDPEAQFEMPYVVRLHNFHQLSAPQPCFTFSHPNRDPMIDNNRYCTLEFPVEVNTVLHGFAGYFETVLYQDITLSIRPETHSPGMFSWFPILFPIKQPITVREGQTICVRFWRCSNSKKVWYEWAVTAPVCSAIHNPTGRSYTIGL
Sequence (Q9BQA1 whole entry partner): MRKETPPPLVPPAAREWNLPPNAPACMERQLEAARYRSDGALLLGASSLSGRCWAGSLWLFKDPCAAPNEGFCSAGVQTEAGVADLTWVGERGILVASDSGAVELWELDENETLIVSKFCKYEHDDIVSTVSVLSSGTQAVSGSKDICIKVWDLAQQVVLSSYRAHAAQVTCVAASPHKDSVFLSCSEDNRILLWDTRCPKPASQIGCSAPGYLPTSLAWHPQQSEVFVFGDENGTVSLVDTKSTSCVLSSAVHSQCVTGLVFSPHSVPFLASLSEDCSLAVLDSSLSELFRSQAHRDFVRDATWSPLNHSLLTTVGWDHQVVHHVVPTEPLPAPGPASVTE
Assay Procedure: PRMT5 biochemical IC50 assay with no cofactor
Condition Context: PRMT5, no cofactor; read-out: No Cofactor/rel IC50
pIC50: −log10 of the molar value.

Query: Lookup: pIC50 / PRMT5 (Homo sapiens) / "CCc1cc(NC(=O)C(=O)N2C[C@@H](C)CC[C@@H]2c2ccc3sc(C45CCC(CC4)N(C)C5)nc3c2)cnc1N"
Reply: > 7.30

Query: How about this compound: Cc1ncc(NC(=O)C(=O)N2C[C@H](C)CC[C@H]2c2ccc3c(c2)CCC(=O)N3)cc1C(F)(F)F (single isomer, unassigned)
Reply: > 7.30

Now consider a different compound.
Query: Form field - read-out: pIC50; system: PRMT5 (Homo sapiens); submitted item: Cc1ccc([C@H]2CC[C@H](C)CN2C(=O)C(=O)Nc2cncc(C(N)=O)c2)nc1 (racemic)
Reply: 6.30 to 7.30
